Cited source: a melting point compilation (Tetko et al.; mined from patent text by program, amines drawn as free bases though some values may be those of a salt)

parameter.measured: melting point

Worked cases, answers included:
[
  {
    "molecule": "O=C(O)[C@@H]1CCCN1C(=O)c1cc2cc3c(cc2c2cc(O)ccc12)OCO3",
    "melting point": "230 to 231 °C"
  },
  {
    "molecule": "c1ccc2cc(Cc3ncc(-c4ccc5cc(OCc6nnn[nH]6)ccc5c4)o3)ccc2c1",
    "melting point": "179 to 182 °C"
  },
  {
    "molecule": "Clc1cc2c(cc1Cl)C(Cl)Cc1ccccc1S2 (configuration not stated)",
    "melting point": "130 to 131 °C"
  }
]

# input molecule: CCCC(O)(CCC)c1ccc(Cl)c2nc3n(c12)CCCN3c1c(C)cc(Cl)cc1Cl ; wanted: its melting point
176 to 178 °C

# input molecule: CCOC(=O)c1ccccc1NC(=O)C(F)(F)F ; wanted: its melting point
78 °C

# input molecule: Nc1n[nH]c(SCCCO)n1 ; wanted: its melting point
136 to 137 °C

# input molecule: CC(C)n1cc(-c2nc(C(N)=O)c(N)nc2-c2ccccc2F)ccc1=O ; wanted: its melting point
252 °C

* * *

# key: entry, value: melting point

Worked cases, answers included:
[
  {
    "molecule": "CCOc1ccc2[nH]c3c(c2c1)C[C@@]1(C)C(=O)N(CCBr)C(=O)N1[C@@H]3c1cccc(O)c1 (racemic)",
    "melting point": "250 to 252 °C"
  },
  {
    "molecule": "Fc1ccc(F)c(-c2coc3ccc(-c4nnc(S)o4)cc23)c1",
    "melting point": "206 to 207 °C"
  }
]

# input molecule: CC(C)[C@H](NC(=O)N1CCOCC1)C(=O)N[C@@H](Cc1ccccc1)C[C@H](O)[C@H](Cc1ccccc1)NC(=O)[C@@H](NC(=O)N1CCOCC1)C(C)C ; wanted: its melting point
198 to 201 °C

# input molecule: CCOCC1COc2cc3c(O)c(C(=O)OCC)cnc3cc2O1 (centres undefined) ; wanted: its melting point
266 to 268 °C

# input molecule: CC(C)(c1ccc(O)cc1)c1ccc(O)c(Cl)c1 ; wanted: its melting point
106 to 107 °C

# input molecule: CCOc1cc(C(=O)NC2CC(C)(C)NC(C)(C)C2)ccc1-c1nc2cc(Cl)c(Cl)cc2[nH]1 ; wanted: its melting point
> 280 °C

# input molecule: CCOC(=O)c1cccc2c1CCc1cc(O)ccc1S2 ; wanted: its melting point
125 to 129 °C

# input molecule: COc1cc(Nc2c(C#N)cnc3cc(-c4cnc(C=O)n4C)ccc23)c(Cl)cc1Cl ; wanted: its melting point
186 to 189 °C

# input molecule: COc1cc(OCc2ccccn2)ccc1/C=C/C(=O)CC(=O)/C=C/c1cc2ccccc2[nH]1 ; wanted: its melting point
178 to 179 °C

# input molecule: O=C(NCCN1CCCC1)N1CCN(c2ccc(F)cc2)CC1 ; wanted: its melting point
100 to 102 °C

# input molecule: CCCNC(=O)N(C)Cc1cccc2c1CN(C1CCC(=O)NC1=O)C2=O (centres undefined) ; wanted: its melting point
220 to 222 °C

# input molecule: COc1ccc(NN=C(Sc2cccc(OC)c2)C(C)=O)cc1 ; wanted: its melting point
97 to 99 °C

# input molecule: O=C(O)C(Cc1ccccc1)Oc1c(Br)cc(-c2ccc(-c3c(Cc4ccccc4)oc4ccccc34)cc2)cc1Br (centres undefined) ; wanted: its melting point
90 to 92 °C

# input molecule: COc1ccc(C2=NN(CC(=O)O)C(=O)[C@H]3CC=CC[C@@H]23)cc1OC (relative stereo) ; wanted: its melting point
178 to 180 °C

# input molecule: CCCCOc1ccc(C(=O)N2CCCCc3sccc32)cc1 ; wanted: its melting point
87 to 90 °C

# input molecule: CCOC=Nc1c(C#N)cnn1-c1ccc(Cl)c(Cl)c1Cl ; wanted: its melting point
131 to 132 °C

# input molecule: Cc1c(C)c(C=O)c2c(c1C)CCO2 ; wanted: its melting point
90 °C

# input molecule: CNc1cc(Oc2ccc(NC(=O)Nc3ccc(C(C)(C)C)cc3)cc2)ncn1 ; wanted: its melting point
245 to 246 °C

# input molecule: CC(=O)C(=NNc1ccccc1)C(=O)NCc1ccccc1 ; wanted: its melting point
101 to 103 °C

# input molecule: CCCCCSc1ccc(CN(O)C(N)=S)s1 ; wanted: its melting point
112 to 114 °C

# input molecule: N#CN=C(Nc1cccnc1)NC1CC1 ; wanted: its melting point
171 to 172 °C
